Measured pKi (Serine/threonine-protein kinase PAK 1 (Homo sapiens, UniProt Q13153))
Answers are plain numbers, as −log10 of the molar value.

Solved entries:
[
  {
    "Smiles string": "C[C@@H]1CN(C(=O)c2nc(Nc3cc(C4CC4)[nH]n3)c3cc(Cl)ccc3n2)CCN1",
    "Experimental value": 5.51
  },
  {
    "Smiles string": "Cc1cc(Nc2nc(N3CCC(N)CC3)nc3ccc(Cl)cc23)n[nH]1",
    "Experimental value": 5.72
  },
  {
    "Smiles string": "C[C@@H]1CN(C(=O)c2nc(Nc3cc(C4CC4)[nH]n3)c3cc(Br)ccc3n2)CCN1",
    "Experimental value": 5.68
  },
  {
    "Smiles string": "C[C@@H]1CN(C(=O)c2nc(Nc3cc(C4CC4)[nH]n3)c3ccc(Cl)cc3n2)CCN1",
    "Experimental value": 6.40
  }
]

Kindly review the next molecule as well.
Q) Report pKi for "CC[C@@H]1CN(C(=O)c2nc(Nc3cc(C4CC4)[nH]n3)c3cc(Cl)ccc3n2)CCN1"
A) 6.43

====

assay: AUC (0 to t) in Sprague-Dawley rat at 2 mg/kg, iv by LC-MS/MS method; type: ADME, organism-based; conditions: in vivo
Quantity measured: AUC(0-t) (ng·h/mL)
Give bare numbers, in ng·h/mL.

Q) Report AUC(0-t) for "C[C@@H]1CN(C(=O)c2nc(Nc3cc(C4CC4)[nH]n3)c3cc(Cl)ccc3n2)CCN1.Cl"
A) 465

====

assay: Stability in Sprague-Dawley rat blood plasma assessed as compound remaining at 2 uM measured after 120 mins by LC-MS/MS method; assay type: ADME, cell-free; settings: read-out: Stability
Quantity measured: remaining at 2 h, 2 µM (%)
Numbers only, in %.

Q) Report remaining at 2 h, 2 µM for "C[C@@H]1CN(C(=O)c2nc(Nc3cc(C4CC4)[nH]n3)c3cc(Cl)ccc3n2)CCN1.Cl"
A) 115

====

assay: Cmax in Sprague-Dawley rat at 2 mg/kg, iv by LC-MS/MS method; assay type: ADME, organism-based; design: dose 2 mg/kg, route intravenous; details: in vivo
Quantity measured: Cmax (ng/mL)
Give bare numbers, in ng/mL.

Q) Report Cmax for "C[C@@H]1CN(C(=O)c2nc(Nc3cc(C4CC4)[nH]n3)c3cc(Cl)ccc3n2)CCN1.Cl"
A) 736

====

biological target: CYP2C19 (Homo sapiens, UniProt P33261); assay: Inhibition of CYP2C19 in human liver microsomes at 10 uM using S-mephenytoin as substrate preincubated for 10 mins followed by NADPH addition measured after 10 mins by LC-MS/MS method; type: ADME; conditions: probe S-mephenytoin
Sequence (P33261 whole entry): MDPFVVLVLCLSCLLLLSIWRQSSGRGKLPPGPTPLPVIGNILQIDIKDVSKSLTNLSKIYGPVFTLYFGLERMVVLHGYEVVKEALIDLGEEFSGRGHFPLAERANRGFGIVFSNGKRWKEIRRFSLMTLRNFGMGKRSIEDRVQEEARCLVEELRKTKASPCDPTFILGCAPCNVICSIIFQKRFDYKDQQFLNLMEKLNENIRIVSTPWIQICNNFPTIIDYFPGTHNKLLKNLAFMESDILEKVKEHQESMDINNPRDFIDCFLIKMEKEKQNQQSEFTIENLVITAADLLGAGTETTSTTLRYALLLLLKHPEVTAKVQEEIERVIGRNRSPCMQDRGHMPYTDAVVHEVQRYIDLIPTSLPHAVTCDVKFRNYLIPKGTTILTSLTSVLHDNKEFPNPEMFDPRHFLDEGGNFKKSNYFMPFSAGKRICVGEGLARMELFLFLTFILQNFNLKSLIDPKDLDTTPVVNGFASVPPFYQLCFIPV
Quantity measured: inhibition at 10 min, 10 µM (%)
Give bare numbers, in %.

Q) Report inhibition at 10 min, 10 µM for "C[C@@H]1CN(C(=O)c2nc(Nc3cc(C4CC4)[nH]n3)c3cc(Cl)ccc3n2)CCN1.Cl"
A) 12.2

====

assay: Intrinsic clearance in rat liver at 1 uM measured after 1 hr by LC-MS/MS method; format: ADME, tissue-based; conditions: read-out: CLH
Quantity measured: CLint scaled at 1 µM

Q) Report CLint scaled at 1 µM for "C[C@@H]1CN(C(=O)c2nc(Nc3cc(C4CC4)[nH]n3)c3cc(Cl)ccc3n2)CCN1.Cl"
A) 59.7 mL/min/kg

====

target: Serine/threonine-protein kinase PAK 4 (Homo sapiens, UniProt O96013); experiment: Inhibition of GST-tagged human PAK4 (295 to 591 residues) expressed in Baculovirus expression system by Z'-Lyte assay
Sequence (O96013 whole entry, the tested form may be a part): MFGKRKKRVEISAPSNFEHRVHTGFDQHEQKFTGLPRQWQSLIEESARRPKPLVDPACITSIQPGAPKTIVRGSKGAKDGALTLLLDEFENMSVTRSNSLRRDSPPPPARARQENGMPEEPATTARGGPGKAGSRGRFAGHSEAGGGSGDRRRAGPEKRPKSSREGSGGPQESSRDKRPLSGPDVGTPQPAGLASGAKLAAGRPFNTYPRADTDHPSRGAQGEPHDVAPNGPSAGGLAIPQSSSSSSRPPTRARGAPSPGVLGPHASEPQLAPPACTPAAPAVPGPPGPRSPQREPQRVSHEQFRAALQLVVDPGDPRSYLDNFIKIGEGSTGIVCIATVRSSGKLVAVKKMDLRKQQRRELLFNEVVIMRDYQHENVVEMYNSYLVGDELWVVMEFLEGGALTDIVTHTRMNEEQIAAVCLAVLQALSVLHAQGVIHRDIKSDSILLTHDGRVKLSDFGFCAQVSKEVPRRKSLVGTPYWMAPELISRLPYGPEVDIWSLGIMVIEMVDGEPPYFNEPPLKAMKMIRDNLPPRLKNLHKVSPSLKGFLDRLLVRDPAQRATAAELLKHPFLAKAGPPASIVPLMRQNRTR
Quantity measured: pIC50
Give bare numbers, as −log10 of the molar value.

Q) Report pIC50 for "C[C@@H]1CN(C(=O)c2nc(Nc3cc(C4CC4)[nH]n3)c3cc(Cl)ccc3n2)CCN1"
A) 7.95

====

test: Half life in Sprague-Dawley rat at 2 mg/kg, iv by LC-MS/MS method; format: ADME, organism-based; conditions: in vivo
Quantity measured: half-life (h)
One number for each entry, in h.

Q) Report half-life for "C[C@@H]1CN(C(=O)c2nc(Nc3cc(C4CC4)[nH]n3)c3cc(Cl)ccc3n2)CCN1.Cl"
A) 1.46

====

experiment: Intrinsic clearance in human liver microsomes at 1 uM measured after 1 hr by LC-MS/MS method; format: ADME, microsome; settings: read-out: CLH
Quantity measured: microsomal CLint at 1 µM (µL/min/mg)
Give bare numbers, in µL/min/mg.

Q) Report microsomal CLint at 1 µM for "C[C@@H]1CN(C(=O)c2nc(Nc3cc(C4CC4)[nH]n3)c3cc(Cl)ccc3n2)CCN1.Cl"
A) 28.7

====

molecular target: Serine/threonine-protein kinase PAK 4 (Homo sapiens); assay: Binding affinity to biotin-labeled human truncated PAK4 kinase domain by surface plasmon resonance assay
Quantity measured: log10(Kd) (log10 of the value in nM)
Use the decimal logarithm of Kd (nM).

Solved entries:
[
  {
    "Smiles string": "NC1CCN(c2nc(Nc3cc(C4CC4)[nH]n3)c3cc(Cl)ccc3n2)CC1",
    "Experimental value": 0.78
  },
  {
    "Smiles string": "Cc1cc(Nc2nc(N3CCC(N)CC3)nc3ccc(Cl)cc23)n[nH]1",
    "Experimental value": 1.63
  }
]

Hey, can you go through the list below and give me log10(Kd) for every item?
1. Cc1cc(Nc2nc(C(=O)N3CCOCC3)nc3ccc(Cl)cc23)n[nH]1
2. Cn1cnc(Nc2nc(N3CCC(N)CC3)nc3ccc(Cl)cc23)c1
3. Cc1cc(Nc2nc(C(=O)N3CCNCC3)nc3ccc(Cl)cc23)n[nH]1
4. O=C(c1nc(Nc2cc(C3CC3)[nH]n2)c2cc(Cl)ccc2n1)N1CCNCC1

A)
1. 3.29
2. 2.19
3. 1.82
4. 1.20

====

test: Distribution coefficient, logD of the compound at pH 7.4 by UV-metric method; type: physicochemical; conditions: octanol/water
Quantity measured: logD
Give bare numbers.

Q) Report logD for "C[C@@H]1CN(C(=O)c2nc(Nc3cc(C4CC4)[nH]n3)c3cc(Cl)ccc3n2)CCN1.Cl"
A) 1.9

====

experiment: Stability in Sprague-Dawley rat blood plasma assessed as compound remaining at 2 uM measured after 60 mins by LC-MS/MS method; type: ADME, cell-free; conditions: read-out: Stability
Quantity measured: remaining at 1 h, 2 µM (%)
One number for each entry, in %.

Q) Report remaining at 1 h, 2 µM for "C[C@@H]1CN(C(=O)c2nc(Nc3cc(C4CC4)[nH]n3)c3cc(Cl)ccc3n2)CCN1.Cl"
A) 110

====

assay: Volume of distribution at steady state in Sprague-Dawley rat at 2 mg/kg, iv by LC-MS/MS method; format: ADME, organism-based; details: in vivo, read-out: Vdss
Quantity measured: Vd (L/kg)
Numbers only, in L/kg.

Q) Report Vd for "C[C@@H]1CN(C(=O)c2nc(Nc3cc(C4CC4)[nH]n3)c3cc(Cl)ccc3n2)CCN1.Cl"
A) 6.43

====

assay: Initial concentration in Sprague-Dawley rat at 2 mg/kg, iv by LC-MS/MS method; assay type: ADME, organism-based; conditions: in vivo
Quantity measured: C0 (µg/mL)
Numbers only, in µg/mL.

Q) Report C0 for "C[C@@H]1CN(C(=O)c2nc(Nc3cc(C4CC4)[nH]n3)c3cc(Cl)ccc3n2)CCN1.Cl"
A) 0.736

====

species: Homo sapiens; assay: Selectivity index, ratio of Ki for human PAK1 to Ki for human PAK4
Quantity measured: Ratio Ki
Answers are plain numbers.

Solved entries:
[
  {
    "Smiles string": "Cc1cc(Nc2nc(N3CCC(N)CC3)nc3ccc(Cl)cc23)n[nH]1",
    "Ratio Ki": 18
  },
  {
    "Smiles string": "CC[C@@H]1CN(C(=O)c2nc(Nc3cc(C4CC4)[nH]n3)c3cc(Cl)ccc3n2)CCN1",
    "Ratio Ki": 61
  }
]

Kindly review the next compound as well.
Q) Report Ratio Ki for "C[C@@H]1CN(C(=O)c2nc(Nc3cc(C4CC4)[nH]n3)c3ccccc3n2)CCN1"
A) 63

====

test: Stability in human liver microsomes assessed as compound remaining at 1 uM preincubated for 10 mins followed by NADPH addition measured after 1 hr by LC-MS/MS method; assay type: ADME, microsome; conditions: read-out: Stability
Quantity measured: remaining at 1 h, 1 µM (%)
Answers are plain numbers, in %.

Q) Report remaining at 1 h, 1 µM for "C[C@@H]1CN(C(=O)c2nc(Nc3cc(C4CC4)[nH]n3)c3cc(Cl)ccc3n2)CCN1.Cl"
A) 41.9

====

Measured pKi (Serine/threonine-protein kinase PAK 4 (Homo sapiens))
Give bare numbers, as −log10 of the molar value.

Solved entries:
[
  {
    "Compound": "CC(C)n1cnc(Nc2nc(N3CCC(N)CC3)nc3ccc(Cl)cc23)c1",
    "Measured on": "Serine/threonine-protein kinase PAK 4 (Homo sapiens)",
    "pKi": 6.05
  },
  {
    "Compound": "Cc1cc(Nc2nc(C(=O)N(C)C3CCCNC3)nc3ccc(Cl)cc23)n[nH]1 (racemic)",
    "Measured on": "Serine/threonine-protein kinase PAK 4 (Homo sapiens)",
    "pKi": 5.79
  },
  {
    "Compound": "C[C@@H]1CNCCN1C(=O)c1nc(Nc2cc(C3CC3)[nH]n2)c2cc(Cl)ccc2n1",
    "Measured on": "Serine/threonine-protein kinase PAK 4 (Homo sapiens)",
    "pKi": 7.77
  },
  {
    "Compound": "Cc1cc(Nc2nc(C(=O)N3CCNC[C@H]3C)nc3ccc(Cl)cc23)n[nH]1",
    "Measured on": "Serine/threonine-protein kinase PAK 4 (Homo sapiens)",
    "pKi": 6.82
  },
  {
    "Compound": "C[C@@H]1CN(C(=O)c2nc(Nc3cc(C4CC4)[nH]n3)c3cc(Br)ccc3n2)CCN1",
    "Measured on": "Serine/threonine-protein kinase PAK 4 (Homo sapiens)",
    "pKi": 7.96
  },
  {
    "Compound": "C[C@H]1CN(C(=O)c2nc(Nc3cc(C4CC4)[nH]n3)c3cc(Cl)ccc3n2)CCN1",
    "Measured on": "Serine/threonine-protein kinase PAK 4 (Homo sapiens)",
    "pKi": 7.55
  },
  {
    "Compound": "Cc1cc(Nc2nc(C(=O)NC3CCNCC3)nc3ccc(Cl)cc23)n[nH]1",
    "Measured on": "Serine/threonine-protein kinase PAK 4 (Homo sapiens)",
    "pKi": 6.49
  },
  {
    "Compound": "NC1CCN(c2nc(Nc3cc(C4CC4)[nH]n3)c3cc(Cl)ccc3n2)CC1",
    "Measured on": "Serine/threonine-protein kinase PAK 4 (Homo sapiens)",
    "pKi": 7.80
  }
]

Kindly review the next compound as well.
Q) Report pKi for "Cc1cc(Nc2nc(C(=O)NC3CNC3)nc3ccc(Cl)cc23)n[nH]1"
A) 6.11

Reference for the values: ChEMBL document CHEMBL4028914
